experiment: chemical genetic growth profiling, strain panel (AID 1159580);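 further: tested at 20 µM; growth read once vehicle control cultures reached saturation at 30 °C; 1 = growth at the plate median or of vehicle wells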
experimental.setup: S. cerevisiae deletion strains, growth OD, locus YMR058W, strain fet3, stronger effect = lower value
Hit rate of the full screen: of about 5,500 compounds, about 2,000 (36%) were called active. Not shown: some 18% with an inconclusive outcome. The list shows a part of the results.
measured.parameter: normalized growth

| compound | observed.result |
| --- | --- |
| C[C@@H]1C(=O)O[C@H]2[C@H]1CC[C@@]1(C)C=CC(=O)[C@@]3(C)O[C@@]213 | 1.03 |
| CC1(C)CC(O)C2(C)CCC3(C)C(=CCC4C5(C)CCC(O)C(C)(CO)C5CCC43C)C2C1 (centres undefined) | 1.02 |
| CC(C)(Sc1cc(C(C)(C)C)c(O)c(C(C)(C)C)c1)Sc1cc(C(C)(C)C)c(O)c(C(C)(C)C)c1 | 1.02 |
| C[C@@H]1CC[C@H]2[C@@H](C)C(=O)O[C@@H]3O[C@@]4(C)CC[C@@H]1[C@]32OO4 | 0.742 |
| CC(C)=CCCC1(C)C=Cc2c(O)c3c(c(CC=C(C)C)c2O1)OC12C(=CC4CC1C(C)(C)OC2(C/C=C(/C)C(=O)O)C4=O)C3=O (centres undefined) | 0.507 |
| Cc1cc(C(C)(C)C)c(O)c(C(C)(C)C)c1 | 0.968 |
| O=C1C(O)=C(O)C(=O)C(O)=C1O | 1.02 |
| CC1(C)CC[C@]2(C(=O)O)CC[C@]3(C)C(=CCC4[C@@]5(C)CC[C@H](O)[C@@](C)(CO)C5CC[C@]43C)C2C1 (some centres undefined) | 1.03 |
| N=C(N)c1ccc(OCCCCCOc2ccc(C(=N)N)cc2)cc1 | 0.828 |

* * *

experiment: chemical genetic growth profiling, strain panel (AID 1159580)
experimental.setup: S. cerevisiae deletion strains, growth OD, locus YMR307W, strain GAS1
Hit rate of the full screen: of about 5,500 compounds, about 2,000 (36%) were called active. Inconclusive results (about 18%) are left out. No stated cut-off is given here; in the data, active means normalized growth mostly below about 0.91 (no sharp cut-off); inconclusive means no clear call, values can overlap the other calls; inactive means mostly above about 0.92. Some of the results follow.
Outcome codes: Y for active, N for inactive

| molecule | assigned.label |
| --- | --- |
| CC(C)(C#N)O[C@@H]1O[C@H](CO)[C@@H](O)[C@H](O)[C@H]1O | N |
| COC(=O)Nc1nc2ccc(C(=O)c3ccccc3)cc2[nH]1 | Y |
| COC(=O)Nc1nc2ccc(C(=O)c3cccs3)cc2[nH]1 | N |
| Cc1noc(C)c1NC(N)=O | N |
| N#CC(O[C@@H]1O[C@H](CO[C@@H]2O[C@H](CO)[C@@H](O)[C@H](O)[C@H]2O)[C@@H](O)[C@H](O)[C@H]1O)c1ccccc1 (stereo partly specified) | N |
| NCC#Cc1ccccc1 | N |

* * *

experiment: chemical genetic growth profiling, strain panel (AID 1159580)
experimental.setup: S. cerevisiae deletion strains, growth OD, locus YER111C, strain swi4, stronger effect = lower value
In all, about 5,500 compounds went through this assay and about 2,000 (36%) were called active. Inconclusive results (about 18%) are left out. This is one part of the list.
measured.parameter: normalized growth

| compound | measured.parameter | observed.result |
| --- | --- | --- |
| CC1=NS(=O)(=O)c2cc(Cl)ccc2N1 | normalized growth | 0.99 |
| Nc1c2ccccc2nc2ccccc12 | normalized growth | 0.886 |
| COC(=O)Nc1nc2ccc(S(=O)c3ccccc3)cc2[nH]1 (stereo unspecified) | normalized growth | 0.986 |
| Cc1cc(O)cc(=O)o1 | normalized growth | 1.01 |
| Nc1ccc(S(=O)(=O)c2ccc(N)cc2)cc1 | normalized growth | 1.02 |
| CC1(C)CC[C@]2(C(=O)O)CC[C@]3(C)C(=CCC4[C@@]5(C)CC[C@@H](O)C(C)(C)C5CC[C@]43C)C2C1 (stereo partly specified) | normalized growth | 1.01 |
| CCCCCCCCCCCC[C@H](C(=O)O)[C@@H](C)C(=O)O | normalized growth | 0.938 |
| CCCCCCCCCCCCCCC(C(=O)O)C(O)(CC(=O)OC)C(=O)O (stereo unspecified) | normalized growth | 0.964 |
| CO[C@@]12[C@@H]3NC3CN1C1=C(C(=O)C(N)=C(C)C1=O)[C@@H]2COC(N)=O (stereo partly specified) | normalized growth | 0.981 |
| O=C(O)CC(O)(CC(=O)O)C(=O)O | normalized growth | 1.01 |
| CC1(C)CC[C@]2(C)CC[C@]3(C)C(=CCC4[C@@]5(C)CC[C@H](O)C(C)(C)C5CC[C@]43C)C2C1 (stereo partly specified) | normalized growth | 0.994 |

* * *

# normalized growth per record follows
experiment: chemical genetic growth profiling, strain panel (AID 1159580);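 further: tested at 20 µM; growth read once vehicle control cultures reached saturation at 30 °C; 1 = growth at the plate median or of vehicle wells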
experimental.setup: S. cerevisiae deletion strains, growth OD, locus YOL136C, strain PFK27, stronger effect = lower value
In all, about 5,500 compounds went through this assay and about 2,000 (36%) were called active. Roughly 18% stayed inconclusive and do not appear here. This is one part of the list.

| record.smiles | normalized growth |
| --- | --- |
| COc1ccc2nc3ccccc3c(N)c2c1 | 0.205 |
| N#Cc1c2ccccc2nc2ccccc12 | 0.742 |
| O=S(=O)(NC(=S)Nc1ccc(Cl)c(Cl)c1)c1ccccc1 | 1 |
| Nc1ccc(Sc2ccccc2)nc1Sc1ccccc1 | 0.921 |

* * *

experiment: chemical genetic growth profiling, strain panel (AID 1159580);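 further: tested at 20 µM; growth read once vehicle control cultures reached saturation at 30 °C; 1 = growth at the plate median or of vehicle wells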
experimental.setup: S. cerevisiae deletion strains, growth OD, locus YNL224C, strain SQS1, stronger effect = lower value
Hit rate of the full screen: of about 5,500 compounds, about 2,000 (36%) were called active. Inconclusive results (about 18%) are left out. This is one part of the list.

| compound | normalized growth |
| --- | --- |
| NCC1OC(O[C@@H]2[C@H](O)C(OC3C(O)C(N)CC(N)C3OC3OC(CO)C(O)C(O)C3N)O[C@@H]2CO)C(N)C(O)C1O (stereo not given in full) | 1.01 |
| O=C(Nc1cc(C(=O)Nc2ccc(S(=O)(=O)O)cc2S(=O)(=O)O)cc(C(=O)Nc2ccc(S(=O)(=O)O)cc2S(=O)(=O)O)c1)Nc1cc(C(=O)Nc2ccc(S(=O)(=O)O)cc2S(=O)(=O)O)cc(C(=O)Nc2ccc(S(=O)(=O)O)cc2S(=O)(=O)O)c1 | 0.993 |
| OC(CCN1CCCCC1)(c1ccccc1)C1CCCCC1 (stereo not given) | 0.998 |
| CCCCCC(O)CCCC(=O)O (stereo not given) | 0.991 |
| N[C@@H](Cc1c[nH]c2ccccc12)C(=O)O | 1.01 |
| NCc1cc(=O)[nH]o1 | 1.01 |
| CNC(=O)Oc1ccc2c(c1)C1(C)CCN(C)C1N2C (stereo not given) | 0.999 |
| NO | 1 |
| NC(N)=NN=Cc1c(Cl)cccc1Cl | 1.01 |
| CC(N)C1CCC(C(=O)Nc2ccncc2)CC1 (stereo not given) | 0.993 |
| O=C(O)C1CCCN(CCC=C(c2ccccc2)c2ccccc2)C1 (stereo not given) | 0.997 |
| NC(=O)c1cc[n+](CC2=C(C(=O)O)N3C(=O)[C@@H](NC(=O)[C@@H](c4ccccc4)S(=O)(=O)[O-])[C@H]3SC2)cc1 | 1 |
| COc1ccc2[nH]cc(CCN)c2c1 | 0.982 |
| CC1=NS(=O)(=O)c2cc(Cl)ccc2N1 | 1 |
| C=CCn1c(=O)c2c(nc(-c3ccc(S(=O)(=O)O)cc3)n2C)n(C)c1=O | 0.99 |

* * *

# normalized growth per record follows
experiment: chemical genetic growth profiling, strain panel (AID 1159580);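 further: tested at 20 µM; growth read once vehicle control cultures reached saturation at 30 °C; 1 = growth at the plate median or of vehicle wells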
experimental.setup: S. cerevisiae deletion strains, growth OD, locus YFR019W, strain FAB1, stronger effect = lower value
Hit rate of the full screen: of about 5,500 compounds, about 2,000 (36%) were called active. Not shown: some 18% with an inconclusive outcome. The list shows a part of the results.
measured.parameter: normalized growth

| compound | observed.result |
| --- | --- |
| O=C(N/N=C\c1cc(Br)ccc1O)c1ccccc1Oc1ccccc1 | 0.953 |
| O=C(c1cccs1)N(Cc1cccnc1)Cc1ccc(Cl)cc1Cl | 0.918 |
| OC1CCN(c2cc(C(F)(F)F)nc3cc(Cl)cc(Cl)c23)CC1 | 1 |
| O=C(c1ccc(Cl)cc1)N(Cc1ccccc1)Cc1cccnc1 | 0.801 |
| CC(C)(C)C(=O)N(Cc1cccnc1)Cc1ccc(Cl)cc1Cl | 0.9 |
| S=C(NNC(=S)NC1CC2C=CC1C2)Nc1ccc(Br)c(Cl)c1 (stereo not drawn) | 0.993 |
| Nc1ccccc1C(=O)N/N=C\c1cc(Br)ccc1O | 0.985 |
| O=C(Nc1ccc(Cl)cc1)SCc1c(Cl)cccc1Cl | 0.747 |
| Clc1ccc2c(c1)c1ccccc1n2CN1CCOCC1 | 0.894 |
| Cc1csc(NC(=O)Nc2ccc(C(F)(F)F)cc2)c1Cl | 0.884 |
| O=C(CSCc1csc2ccccc12)Nc1ccc(F)c(Cl)c1 | 0.93 |
| Cc1nc(-c2ccccn2)nc(SCc2ccccc2)c1Cl | 0.887 |
| O=C(NCCc1ccncc1)c1ccc(Cl)c(Cl)c1 | 0.927 |
